Molecular target: c-kit kinase (Homo sapiens, UniProt P10721)
Construct: The c-kit (or kinase domain thereof) is an active kinase in AlphaScreen; poly-Histidine tag (in-house protein only) (cleaved yes); host or cells: E. coli BL21(DE3)RIL, co-expressed with PTP1B
Sequence (P10721 26-976): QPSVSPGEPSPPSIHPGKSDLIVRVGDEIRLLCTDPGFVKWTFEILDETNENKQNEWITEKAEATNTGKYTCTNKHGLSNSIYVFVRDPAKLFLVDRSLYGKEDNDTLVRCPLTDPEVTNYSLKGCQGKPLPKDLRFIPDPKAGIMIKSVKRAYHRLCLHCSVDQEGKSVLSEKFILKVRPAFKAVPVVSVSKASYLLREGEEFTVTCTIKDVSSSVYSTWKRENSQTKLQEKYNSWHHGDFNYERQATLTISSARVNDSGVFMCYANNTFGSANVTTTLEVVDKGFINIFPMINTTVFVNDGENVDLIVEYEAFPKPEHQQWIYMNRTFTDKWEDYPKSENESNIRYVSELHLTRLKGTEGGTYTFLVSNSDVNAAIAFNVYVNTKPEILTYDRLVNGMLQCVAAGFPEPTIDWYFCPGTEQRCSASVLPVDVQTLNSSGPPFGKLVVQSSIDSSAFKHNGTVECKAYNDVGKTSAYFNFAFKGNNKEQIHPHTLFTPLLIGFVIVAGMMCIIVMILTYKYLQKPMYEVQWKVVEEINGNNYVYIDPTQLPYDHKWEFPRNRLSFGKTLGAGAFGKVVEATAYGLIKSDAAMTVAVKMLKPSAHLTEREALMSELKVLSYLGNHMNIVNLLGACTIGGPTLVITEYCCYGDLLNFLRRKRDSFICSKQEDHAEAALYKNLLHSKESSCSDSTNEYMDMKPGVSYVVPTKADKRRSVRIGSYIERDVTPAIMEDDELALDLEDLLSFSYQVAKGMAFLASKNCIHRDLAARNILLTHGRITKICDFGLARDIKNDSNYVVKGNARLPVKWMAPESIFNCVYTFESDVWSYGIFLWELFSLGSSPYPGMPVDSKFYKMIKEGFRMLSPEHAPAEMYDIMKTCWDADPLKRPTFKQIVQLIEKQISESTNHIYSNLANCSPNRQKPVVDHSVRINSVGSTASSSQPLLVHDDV
Experiment: c-Kit biochemical assay, AlphaScreen, 10 μM ATP
Conditions: c-kit biochemical inhibitory activity; read-out: Biochemical activity (IC50 μM) Kit
Exercise: for every item that follows, state its recorded IC50.

Your task in this section: give IC50 for each listed record.
1. CC1(C)C=C(c2cc3c(N4CCC(NS(=O)(=O)c5ccc(OC(F)(F)F)cc5)CC4)ncnc3[nH]2)CC(C)(C)N1
2. Cn1cc(-c2cc3c(C4=CCC(NS(=O)(=O)c5ccc(OC(F)(F)F)cc5)CC4)ncnc3[nH]2)cn1 (stereo not shown) [P-0545]
3. O=C(NCc1cccc(F)c1)NC1CCN(c2ncnc3[nH]ccc23)CC1
4. Cc1nn(C)cc1-c1cc2ncnc(N3CCN(C(=O)N[C@@H](C)c4cccc(F)c4)[C@H](C)C3)c2s1

1 to 10 µM
1 to 10 µM
10 to 200 µM
1 to 10 µM

---

Target: c-kit mutant D816V (Homo sapiens, UniProt P10721, D816V/DEL694-753)
Construct: residues 551-934, kinase insertion domain residues 694-753 deleted; 6x-histidine (N); made in house; host or cells: E. coli Arctic Express (DE3) RIL (Stratagene)
Sequence (P10721 with tags, fused parts or gaps DEL694-753/D816V): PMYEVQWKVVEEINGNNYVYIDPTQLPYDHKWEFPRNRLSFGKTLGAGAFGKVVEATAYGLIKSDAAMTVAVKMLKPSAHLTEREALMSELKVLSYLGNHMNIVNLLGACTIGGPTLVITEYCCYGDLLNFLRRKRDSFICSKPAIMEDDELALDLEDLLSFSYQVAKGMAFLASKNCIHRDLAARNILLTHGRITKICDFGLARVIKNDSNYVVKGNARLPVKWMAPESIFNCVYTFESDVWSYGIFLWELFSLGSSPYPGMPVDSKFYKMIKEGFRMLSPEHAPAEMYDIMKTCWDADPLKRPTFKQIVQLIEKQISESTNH
Experiment: c-Kit mutant D816V biochemical assay, AlphaScreen
Conditions: c-kit D816V biochemical inhibitory activity; read-out: Biochemical activity (IC50 μM) Kit D816V
value kind: IC50

C[C@H](NC(=O)N1CCN(c2ncnc3[nH]c(-c4ccncc4)cc23)C[C@H]1C)c1ccc(Cl)cc1    0.0001 to 1 µM

Your task in this section: give IC50 for each listed record.
1. COc1cc(-c2cc3c(N4CCN(C(=O)N[C@@H](C)c5cccc(Cl)c5)[C@H](C)C4)ncnc3[nH]2)ccn1
2. CC1(C)C=C(c2cc3c(-c4ccc(NS(=O)(=O)c5ccc(F)cc5)cc4)ncnc3[nH]2)CC(C)(C)O1
3. C[C@@H]1CN(c2ncnc3[nH]c(-c4ccncc4)cc23)CCN1C(=O)Nc1ccc(N(C)C)cc1

0.0001 to 1 µM
1 to 10 µM
0.0001 to 1 µM

Your task in this section: give IC50 for each listed record.
1. C[C@H](NC(=O)N1CCN(c2ncnc3[nH]c(-c4ccc(C#N)cc4)cc23)C[C@H]1C)c1cccc(Cl)c1
2. Cc1cc2c(C3=CCC(NS(=O)(=O)c4ccc(OC(C)C)cc4)CC3)ncnc2[nH]1 (stereo not shown)

1. 0.0001 to 1 µM
2. 1 to 10 µM

Your task in this section: give IC50 for each listed record.
1. C[C@H](NC(=O)N1CCN(c2ncnc3[nH]c(-c4ccc(F)cc4)cc23)C[C@H]1C)c1cccc(OC(F)F)c1
2. C[C@H](NC(=O)N1CCN(c2ncnc3[nH]c(-c4cnn(C)c4)cc23)CC1)c1ccc(F)cc1
3. O=S(=O)(Nc1ccc(-c2ncnc3cc4c(cc23)OCCO4)c(F)c1)C1CC1
4. C[C@H](NC(=O)N1CCN(c2ncnc3cc(C4=CC(C)(C)NC(C)(C)C4)sc23)CC1)c1cccc(Cl)c1
5. [2H]C([2H])([2H])S(=O)(=O)Nc1ccc(-c2ncnc3[nH]c(-c4ccc(F)cc4)cc23)cc1F
6. Cc1nn(C)cc1-c1cc2ncnc(N3CCN(C(=O)NCc4ccc(F)cc4)CC3)c2s1
7. COCCOc1cc2ncnc(-c3ccc(NS(=O)(=O)c4ccc(OC(F)F)cc4)cc3F)c2cc1OCCOC

["0.0001 to 1 µM", "0.0001 to 1 µM", "10 to 200 µM", "0.0001 to 1 µM", "0.0001 to 1 µM", "0.0001 to 1 µM", "0.0001 to 1 µM"]

Your task in this section: give IC50 for each listed record.
1. CC(C)(C)OC(=O)N1CCN(c2ncnc3[nH]c(-c4cccnc4)cc23)CC1
2. CS(=O)(=O)N1CC=C(c2cc3ncnc(N4CCN(C(=O)NCc5ccc(F)cc5)CC4)c3s2)CC1
3. COc1ccc([C@H](C)NC(=O)N2CCN(c3ncnc4cc(-c5ccc(F)cc5)sc34)CC2(C)C)cc1

10 to 200 µM
0.0001 to 1 µM
0.0001 to 1 µM

---

Biological target: c-kit mutant D816V (Homo sapiens, UniProt P10721, D816V/DEL694-753)
Construct: residues 551-934, kinase insertion domain residues 694-753 deleted; 6x-histidine (N); made in house; host or cells: E. coli Arctic Express (DE3) RIL (Stratagene)
Assay: c-Kit mutant D816V biochemical assay, AlphaScreen
Details: c-kit D816V biochemical inhibitory activity; read-out: Biochemical activity (IC50 μM) Kit D816V
value kind: IC50

Cc1nn(C)cc1-c1cc2c(N3CCN(C(=O)N[C@@H](C)c4ccc(Cl)cc4)[C@H](C)C3)ncnc2[nH]1 [P-0718]    0.0001 to 1 µM

Your task in this section: give IC50 for each listed record.
1. C[C@H](NC(=O)N1CCN(c2ncnc3[nH]c(-c4ccc(F)cc4)cc23)C[C@H]1C)c1ccc(F)cc1 [P-0030]
2. CCc1ccc(S(=O)(=O)NC2CCN(c3ncnc4[nH]c(-c5cnn(C)c5)cc34)CC2)s1 [P-0665]
3. C[C@H](NC(=O)N1CCN(c2ncnc3[nH]c(-c4ccc(F)cc4)cc23)C[C@H]1C)c1cccc(Cl)c1 [P-0701]
4. Cc1ccccc1C(=O)c1c[nH]c2ncnc(N3CCN(C(=O)NCc4ccc(F)cc4)CC3)c12 [P-0160]
5. CS(=O)(=O)Nc1ccc(-c2ncnc3[nH]c(-c4ccc(F)cc4)cc23)c(F)c1 [P-0398]
6. O=C(NCc1ccc(F)cc1)N1CCN(c2ncnc3ccsc23)CC1 [P-0638]
7. O=S(=O)(NC1CCN(c2ncnc3[nH]c(-c4ccc(Cl)cc4)cc23)CC1)c1cccc(OC(F)(F)F)c1 [P-0499]

1. 0.0001 to 1 µM
2. 0.0001 to 1 µM
3. 0.0001 to 1 µM
4. 1 to 10 µM
5. 0.0001 to 1 µM
6. 10 to 200 µM
7. 1 to 10 µM

---

Biological target: c-kit kinase (Homo sapiens, UniProt P10721)
Construct: The c-kit (or kinase domain thereof) is an active kinase in AlphaScreen; poly-Histidine tag (in-house protein only) (cleaved yes); host or cells: E. coli BL21(DE3)RIL, co-expressed with PTP1B
Test: c-Kit biochemical assay, AlphaScreen, 10 μM ATP
Settings: c-kit biochemical inhibitory activity; read-out: Biochemical activity (IC50 μM) Kit
value kind: IC50

Use the examples below as a reference point.
Cc1n[nH]c2ncnc(-c3ccc(NS(=O)(=O)c4ccc(F)cc4)cc3)c12    1 to 10 µM
Fc1ccc(-c2cc3c(-c4cccnc4C(F)(F)F)ncnc3[nH]2)cc1    10 to 200 µM
COc1cc(CNC(=O)N2CCN(c3ncnc4[nH]c(-c5cccnc5)cc34)CC2)ccn1    10 to 200 µM
CC1(C)C=C(c2cc3c(-c4ccc(NS(=O)(=O)c5ccc(F)cc5)cc4)ncnc3[nH]2)CC(C)(C)O1    10 to 200 µM
C[C@H](NC(=O)N1CCN(c2ncnc3[nH]c(-c4ccncc4)cc23)C[C@H]1C)c1ccc(F)cc1    1 to 10 µM
O=C(Nc1ccccc1Cl)N1CCN(c2ncnc3[nH]c(-c4cccnc4)cc23)CC1 [P-0220]    0.0001 to 1 µM

Your task in this section: give IC50 for each listed record.
1. CCCC(=O)N1CCN(c2ncnc3[nH]ccc23)CC1
2. CS(=O)(=O)Nc1ccc(-c2ncnc3[nH]c(-c4ccc(F)cc4)cc23)cc1
3. O=C(NCc1ccc(F)cc1)N1CCN(c2ncnc3[nH]c(-c4ccc(Cl)cc4)cc23)CC1
4. COc1cccc([C@H](C)NC(=O)N2CC3CCC2CN3c2ncnc3cc(-c4ccc(F)cc4)sc23)c1 (stereo partly shown)
5. COc1ncc(-c2cc3c(N4CCN(C(=O)NCc5ccc(F)cc5)CC4)ncnc3[nH]2)cn1
6. COc1cc([C@H](C)NC(=O)N2CCN(c3ncnc4[nH]c(-c5ccc(F)cc5)cc34)C[C@H]2C)ccc1Cl
7. Cc1cc2c(C3=CCC(NS(=O)(=O)c4ccc(Cl)cc4)CC3)ncnc2[nH]1 (stereo not shown)
8. Cc1ccc(S(=O)(=O)Nc2ccc(-c3ncnc4cc(C)sc34)cc2)cc1

1. 10 to 200 µM
2. 0.0001 to 1 µM
3. 10 to 200 µM
4. 10 to 200 µM
5. 1 to 10 µM
6. 1 to 10 µM
7. 0.0001 to 1 µM
8. 1 to 10 µM

Your task in this section: give IC50 for each listed record.
1. CN(C)c1ccc(NC(=O)N2CCN(c3ncnc4[nH]c(-c5ccc(C#N)cc5)cc34)CC2)cc1
2. Cc1cc2c(-c3ccc(NS(=O)(=O)c4cccc(Cl)c4)c(F)c3)ncnc2[nH]1
3. Cc1cc2c(-c3ccc(NS(=O)(=O)c4ccc(Cl)cc4)cc3)ncnc2[nH]1
4. CC(=O)Nc1cccc(-c2cc3c(N4CCN(C(=O)NCc5ccc(F)cc5)CC4)ncnc3[nH]2)c1
5. CS(=O)(=O)Nc1ccc(-c2ncnc3cc(C4=CCN(C(=O)C5CC5)CC4)sc23)cc1
6. O=S(=O)(Nc1ccc(-c2ncnc3[nH]c(-c4ccc(F)cc4)cc23)cc1F)c1ccc(F)cc1
7. Cc1cc2c(-c3ccc(NS(=O)(=O)c4ccc(OC(F)F)cc4)cc3)ncnc2[nH]1

1. 1 to 10 µM
2. 1 to 10 µM
3. 1 to 10 µM
4. 1 to 10 µM
5. 0.0001 to 1 µM
6. 10 to 200 µM
7. 10 to 200 µM

Your task in this section: give IC50 for each listed record.
1. Cc1n[nH]c2ncnc(-c3ccc(NS(=O)(=O)c4ccc(C(F)(F)F)nc4)cc3)c12
2. CS(=O)(=O)Nc1cccc(-c2ncnc3[nH]c(-c4ccc(F)cc4)cc23)c1
3. O=C(NC1CCCC1)N1CCN(c2ncnc3[nH]ccc23)CC1
4. Fc1ccc(-c2cc3c(N4CCN(c5nc6ccccc6[nH]5)CC4)ncnc3[nH]2)cc1

1: 10 to 200 µM; 2: 1 to 10 µM; 3: 10 to 200 µM; 4: 10 to 200 µM

Your task in this section: give IC50 for each listed record.
1. Cc1cc2ncnc(-c3ccc(NS(C)(=O)=O)cc3)c2s1
2. Cc1n[nH]c2ncnc(-c3ccc(NS(=O)(=O)c4cccc(F)c4)cc3)c12
3. COc1cc([C@H](C)NC(=O)N2CCN(c3ncnc4[nH]c(-c5ccc(F)cc5)cc34)C[C@H]2C)ccc1F
4. Cc1cc2c(-c3ccc(NS(=O)(=O)c4ccc(C(F)(F)F)nc4)cc3)ncnc2[nH]1
5. Cc1csc(S(=O)(=O)Nc2ccc(-c3ncnc4[nH]c(C)cc34)cc2)c1
6. Cc1cc2c(-c3ccc(NS(=O)(=O)c4cccc(F)c4)cc3F)ncnc2[nH]1

["10 to 200 µM", "1 to 10 µM", "10 to 200 µM", "10 to 200 µM", "0.0001 to 1 µM", "1 to 10 µM"]
